Tested on: IL-1β cytokine output from THP-1s
Assay: THP-1 AlphaLISA IL-1β cytokine assay
Format: cell-based, human
Conditions: Homo sapiens, THP-1, PMA-differentiated THP-1 cells, LPS 24 hr then Nigericin 1 hour; read-out: IL-1β (IC50)
Reported Property: IC50 (µM)

Compound | IC50 (µM)
C=C(CC(=O)OCCCCCCCC)C(=O)OCCC(=O)O | 9.6
C=C(CC(=O)OCCCCCCCC)C(=O)OCCC(=O)N(C)C | 12.8
C=C(CC(=O)OC(C)c1cc(Cl)cc(Cl)c1)C(=O)OCC(=O)O (stereo not shown) [Example 176] | 12

(A) C=C(CC(=O)OC1CCCCCCC1)C(=O)OCC(=O)N1CCC[C@H]1C(=O)O
(B) C=C(CC(=O)OC1CCCCCCC1)C(=O)OCc1nnn[nH]1
(C) C=C(CC(=O)OC1CCCCC1)C(=O)OCCN1CCCC1=O
(D) C=C(CC(=O)OC1CCCCCCC1)C(=O)OC1CN(C(C)=O)C1
(E) C=C(CC(=O)OC1CC2(COC2)C1)C(=O)O[C@H]1[C@@H]2CC[C@H]1CN(S(C)(=O)=O)C2
Enquiry: Highest IC50 first, then in falling order down to the smallest. Your answer should be the labels, listed in the requested order.
Return: E, C, A, B, D
